assay: Solubility of the free base of the compound of Formula I in solvents and mixed solvent systems; format: physicochemical; conditions: organic solvent or mixture, thermodynamic from solid; 10% THF in EtOH, room temperature; read-out: Solubility
measurement-kind: solubility

- compound: "COc1ccc(CN2CCN(c3ccc(-c4cc(-c5cnn(C)c5)cn5ncc(C#N)c45)cn3)CC2)cn1 [freebase of the compound of Formula I]"
  measurement-kind: "solubility"
  obs-value: "290 µg/mL"

----------
assay: Solvent solubility screen of the compound of Formula II; type: physicochemical; conditions: 40 °C, organic solvent or mixture, thermodynamic from solid; 2-Methyl THF; (P) partial solubility at 100 volumes; read-out: Approximate solubility
measurement-kind: solubility

- smiles-notation: "COc1ccc(CN2C3CC2CN(c2ccc(-c4cc(OCC(C)(C)O)cn5ncc(C#N)c45)cn2)C3)cn1"
  measurement-kind: "solubility"
  obs-value: "< 5000 µg/mL"

----------
test: Solubility of the free base of the compound of Formula I in solvents and mixed solvent systems; assay type: physicochemical; conditions: 25 °C, organic solvent or mixture, thermodynamic from solid; 40% THF in EtOH, room temperature; read-out: Solubility

- compound: "COc1ccc(CN2CCN(c3ccc(-c4cc(-c5cnn(C)c5)cn5ncc(C#N)c45)cn3)CC2)cn1 [freebase of the compound of Formula I]"
  solubility / µg/mL: 820

----------
experiment: Solubility screening of the compound of Formula IV (freebase) in solvent mixtures; type: physicochemical; conditions: aqueous with cosolvent or surfactant or cyclodextrin; EtOH:water (1:1), approximately 25° C.
measurement-kind: solubility (mg/mL)

- compound: "CC(C)(O)COc1cc(-c2ccc(N3CCC(O)(Cc4ccccn4)CC3)nc2)c2c(C#N)cnn2c1 [compound of Formula IV]"
  endpoint-unit: "mg/mL"
  obs-value: 51

----------
experiment: Solubility of the free base of the compound of Formula I in solvents and mixed solvent systems; format: physicochemical; details: 90% THF in H2O, 25 °C, aqueous with cosolvent or surfactant or cyclodextrin, thermodynamic from solid; title: THF/H2O at room temperature; head: % THF in EtOH = 90; read-out: Solubility

- compound: "COc1ccc(CN2CCN(c3ccc(-c4cc(-c5cnn(C)c5)cn5ncc(C#N)c45)cn3)CC2)cn1 [freebase of the compound of Formula I]"
  endpoint-unit: "µg/mL"
  solubility: 6560

----------
assay: Solubility screening of the compound of Formula IV (freebase) in solvent mixtures; type: physicochemical; conditions: organic solvent or mixture; EtOH:water (90:10), approximately 25° C.
measurement-kind: solubility (mg/mL)

- molecule: "CC(C)(O)COc1cc(-c2ccc(N3CCC(O)(Cc4ccccn4)CC3)nc2)c2c(C#N)cnn2c1 [compound of Formula IV]"
  measurement-kind: "solubility"
  obs-value: 55

----------
test: Solubility of the free base of the compound of Formula I in solvents and mixed solvent systems; assay type: physicochemical; conditions: 80% THF in H2O, 25 °C, aqueous with cosolvent or surfactant or cyclodextrin, thermodynamic from solid; title: THF/H2O at room temperature; head: % THF in EtOH = 80; read-out: Solubility

- compound: "COc1ccc(CN2CCN(c3ccc(-c4cc(-c5cnn(C)c5)cn5ncc(C#N)c45)cn3)CC2)cn1 [freebase of the compound of Formula I]"
  solubility: "6650 µg/mL"

----------
Experiment: Solvent solubility screen of the compound of Formula II
Format: physicochemical
Details: Water, 40 °C, water, thermodynamic from solid; read-out: Approximate solubility
Protocol: A solvent solubility screen was conducted in 32 solvent systems as follows. Between each addition, the mixture was checked for dissolution. If no dissolution was apparent, the mixture was heated to around 40° C. and checked again. This procedure was continued until dissolution was observed or until 100 volumes of solvent had been added. Undissolved material from the solubility screen was isolated and analyzed by XRPD.

- smiles-notation: "COc1ccc(CN2C3CC2CN(c2ccc(-c4cc(OCC(C)(C)O)cn5ncc(C#N)c45)cn2)C3)cn1"
  solubility: "< 5000 µg/mL"
